Tested system: T1, recombinant human ASM protein (human, UniProt P17405 47-630)
T1 construct: Recombinant human ASM in solution; also called acid sphingomyelinase (ASM) protein
T1 sequence: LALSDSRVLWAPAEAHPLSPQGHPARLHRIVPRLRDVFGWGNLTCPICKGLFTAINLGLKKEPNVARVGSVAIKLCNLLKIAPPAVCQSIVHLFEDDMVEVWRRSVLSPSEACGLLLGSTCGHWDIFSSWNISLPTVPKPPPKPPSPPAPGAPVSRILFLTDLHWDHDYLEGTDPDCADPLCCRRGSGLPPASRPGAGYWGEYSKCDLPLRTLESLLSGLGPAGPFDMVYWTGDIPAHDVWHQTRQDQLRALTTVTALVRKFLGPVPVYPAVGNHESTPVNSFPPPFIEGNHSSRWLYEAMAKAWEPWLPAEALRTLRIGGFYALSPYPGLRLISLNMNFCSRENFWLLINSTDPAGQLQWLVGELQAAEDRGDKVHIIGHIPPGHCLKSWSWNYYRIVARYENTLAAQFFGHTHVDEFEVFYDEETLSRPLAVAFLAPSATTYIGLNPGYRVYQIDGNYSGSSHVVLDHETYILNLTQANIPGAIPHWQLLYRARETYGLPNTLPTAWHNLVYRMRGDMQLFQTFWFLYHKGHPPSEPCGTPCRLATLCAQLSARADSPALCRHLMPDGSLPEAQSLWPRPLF
Experiment description: BLI (Octet), antibody on AHC sensor
Can you tell me Kd for the items I'm about to list?
The reply should consist of the numeric value with the unit placed after it.

Query :: Assign Kd to the following record: #9104a-C2 (antibody, human IgG4 S228P, lambda, V domains shown, VH of #9104v-H11 with VL of #9104v-L23; full-length IgG, lambda) VH: EVQLLESGGGLVQPGGSLRLSCAASGFTFSNYYMSWVRQAPGKGLEWVSGIYYGSGIPYYADSVKERFTISRDNSKNTLYLQMNSLRAEDTAVYYCARDTPGFDYWGQGTLVTVSS VL: QSVLTQPPSASGTPGQRVTISCTGSSSNIGNNAVNWYQQLPGTAPKLLIYYDQFRPSGVPDRFSGSKSGTSASLAISGLRSEDEADYYCGAWDYSLSAYVFGGGTKLTVLG
Result :: 172 pM

Query :: Please indicate Kd recorded for #9104a-A4 (antibody, human IgG4 S228P, lambda, V domains shown, VH of #9104v-H17 with VL of #9104v-L20; full-length IgG, lambda) VH: EVQLLESGGGLVQPGGSLRLSCAASGFTFSNYYMSWVRRAPGKGLEWVSGIYYGSGTPYYAASVKGRFTISRDNSKNTLYLQMNSLRAEDTAVYYCARDTPGFDYWGQGTLVTVSS VL: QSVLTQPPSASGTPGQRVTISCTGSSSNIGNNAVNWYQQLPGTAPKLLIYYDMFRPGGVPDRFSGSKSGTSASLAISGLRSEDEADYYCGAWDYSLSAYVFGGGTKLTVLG
Result :: 162 pM

Query :: Return Kd (reported value) for this binder: #9104a-A8 (antibody, human IgG4 S228P, lambda, V domains shown, VH of #9104v-H33 with VL of #9104v-L20; full-length IgG, lambda) VH: EVQLLESGGGLVQPGGSLRLSCAASGFTFSNYYMSWVRQAPGKGLEWVSGVYYPSGNPYYADSVKGRFTISRDNSKNTLYLQMNSLRAEDTAVYYCARDTPGFDYWGQGTLVTVSS VL: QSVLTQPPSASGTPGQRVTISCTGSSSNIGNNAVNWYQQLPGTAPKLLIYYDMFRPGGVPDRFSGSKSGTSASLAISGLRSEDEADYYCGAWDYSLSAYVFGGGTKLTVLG
Result :: 237 pM

Query :: Provide one value: measured Kd of #9104a-E8 (antibody, human IgG4 S228P, lambda, V domains shown, VH of #9104v-H33 with VL of #9104v-L65; full-length IgG, lambda) VH: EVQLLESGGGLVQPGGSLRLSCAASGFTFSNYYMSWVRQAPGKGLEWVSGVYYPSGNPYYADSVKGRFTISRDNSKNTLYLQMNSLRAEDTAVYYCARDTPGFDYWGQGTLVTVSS VL: QSVLTQPPSASGTPGQRVTISCTGSSSNIGNNAVNWYQQLPGTAPKLLIYYDYYQSSGVPDRFSGSKSGTSASLAISGLRSEDEADYYCGAWDYSLSAYVFGGGTKLTVLG
Result :: 380 pM

Query :: For the binder #9104a-E7 (antibody, human IgG4 S228P, lambda, V domains shown, VH of #9104v-H31 with VL of #9104v-L65; full-length IgG, lambda) VH: EVQLLESGGGLVQPGGSLRLSCAASGFTFSNYYMSWVRQAPGKGLEWVSGVYYGSGTPYYADSVKGRFTISRDNSKNTLYLQMNSLRAEDTAVYYCARDTPGFDYWGQGTLVTVSS VL: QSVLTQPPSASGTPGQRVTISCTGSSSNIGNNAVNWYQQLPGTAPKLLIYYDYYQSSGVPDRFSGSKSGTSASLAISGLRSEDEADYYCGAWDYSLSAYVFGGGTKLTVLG , report Kd.
Result :: 211 pM

Query :: Return the recorded Kd value; entry: #9104a-B8 (antibody, human IgG4 S228P, lambda, V domains shown, VH of #9104v-H33 with VL of #9104v-L21; full-length IgG, lambda) VH: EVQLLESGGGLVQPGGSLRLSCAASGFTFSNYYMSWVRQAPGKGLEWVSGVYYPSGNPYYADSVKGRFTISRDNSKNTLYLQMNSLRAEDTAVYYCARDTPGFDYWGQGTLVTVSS VL: QSVLTQPPSASGTPGQRVTISCTGSSSNIGNNAVNWYQQLPGTAPKLLIYYDMFRPNGVPDRFSGSKSGTSASLAISGLRSEDEADYYCGAWDYSLSAYVFGGGTKLTVLG
Result :: 280 pM

Origin of measurements: patent US20260201064A1
